# Measured On: Sodium-dependent noradrenaline transporter (Homo sapiens)
# Sequence (P23975 whole entry): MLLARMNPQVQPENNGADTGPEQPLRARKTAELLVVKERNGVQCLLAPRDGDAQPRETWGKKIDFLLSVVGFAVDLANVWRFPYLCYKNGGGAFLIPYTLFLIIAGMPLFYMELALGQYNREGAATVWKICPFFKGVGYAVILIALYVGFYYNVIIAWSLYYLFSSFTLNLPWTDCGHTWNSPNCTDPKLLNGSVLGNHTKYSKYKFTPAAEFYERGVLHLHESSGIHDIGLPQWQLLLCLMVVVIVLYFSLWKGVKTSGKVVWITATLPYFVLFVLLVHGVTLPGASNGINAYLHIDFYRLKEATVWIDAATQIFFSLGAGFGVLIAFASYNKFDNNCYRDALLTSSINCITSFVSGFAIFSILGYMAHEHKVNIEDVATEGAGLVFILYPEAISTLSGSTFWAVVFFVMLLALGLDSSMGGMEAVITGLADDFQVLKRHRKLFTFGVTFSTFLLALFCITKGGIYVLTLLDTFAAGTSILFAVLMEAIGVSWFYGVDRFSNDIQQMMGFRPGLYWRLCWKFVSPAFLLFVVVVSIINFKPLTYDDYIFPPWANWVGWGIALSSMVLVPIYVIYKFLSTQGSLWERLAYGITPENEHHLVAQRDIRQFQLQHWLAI
// returns 0 (no) unless Kd is strictly below 3000 nM, in which case 1 (yes)

Is it true that Kd reported for COc1ccc([C@H](CN)[C@@H](O)C2CCCCC2)cc1 (racemic) is less than 3000 nM? 1 (yes)

Item CCOc1ccccc1OCC1CNCCO1 (racemic) : Kd beneath 3000 nM, strictly? 1 (yes)

Is Kd strictly under 3000 nM for the entry CC(C)(C)[C@H](O)[C@@H](CN)c1ccc2ccccc2c1 (racemic) ? 1 (yes)

Lab note: confirm whether the reported Kd for this compound is below 3000 nM, equality not counting. compound: COc1ccc([C@H](CN(C)C)[C@@H](O)C2CCCCC2)cc1 (racemic) 1 (yes)

State whether 3000 nM exceeds Kd recorded for CN(C)C[C@@H](c1ccc2ccccc2c1)[C@@H](O)C(C)(C)C (racemic) . 1 (yes)

Is it true that Kd reported for CN(C)C[C@@H](c1ccccc1)[C@@H](O)C(C)(C)C (racemic) is less than 3000 nM? 0 (no)

Does this compound meet the criterion Kd < 3000 nM? CC(C)(C)[C@H](O)[C@@H](CN)c1ccccc1 (racemic) 0 (no)

Check if Kd falls below 3000 nM for Cc1cc(C)c([C@H](O)[C@@H](CN)c2ccccc2)c(C)c1 (racemic) . 0 (no)

Source listed as ChEMBL document CHEMBL1130764.
